biological target: EGFR (UniProt P00533)
Sequence (P00533 whole entry, looked up): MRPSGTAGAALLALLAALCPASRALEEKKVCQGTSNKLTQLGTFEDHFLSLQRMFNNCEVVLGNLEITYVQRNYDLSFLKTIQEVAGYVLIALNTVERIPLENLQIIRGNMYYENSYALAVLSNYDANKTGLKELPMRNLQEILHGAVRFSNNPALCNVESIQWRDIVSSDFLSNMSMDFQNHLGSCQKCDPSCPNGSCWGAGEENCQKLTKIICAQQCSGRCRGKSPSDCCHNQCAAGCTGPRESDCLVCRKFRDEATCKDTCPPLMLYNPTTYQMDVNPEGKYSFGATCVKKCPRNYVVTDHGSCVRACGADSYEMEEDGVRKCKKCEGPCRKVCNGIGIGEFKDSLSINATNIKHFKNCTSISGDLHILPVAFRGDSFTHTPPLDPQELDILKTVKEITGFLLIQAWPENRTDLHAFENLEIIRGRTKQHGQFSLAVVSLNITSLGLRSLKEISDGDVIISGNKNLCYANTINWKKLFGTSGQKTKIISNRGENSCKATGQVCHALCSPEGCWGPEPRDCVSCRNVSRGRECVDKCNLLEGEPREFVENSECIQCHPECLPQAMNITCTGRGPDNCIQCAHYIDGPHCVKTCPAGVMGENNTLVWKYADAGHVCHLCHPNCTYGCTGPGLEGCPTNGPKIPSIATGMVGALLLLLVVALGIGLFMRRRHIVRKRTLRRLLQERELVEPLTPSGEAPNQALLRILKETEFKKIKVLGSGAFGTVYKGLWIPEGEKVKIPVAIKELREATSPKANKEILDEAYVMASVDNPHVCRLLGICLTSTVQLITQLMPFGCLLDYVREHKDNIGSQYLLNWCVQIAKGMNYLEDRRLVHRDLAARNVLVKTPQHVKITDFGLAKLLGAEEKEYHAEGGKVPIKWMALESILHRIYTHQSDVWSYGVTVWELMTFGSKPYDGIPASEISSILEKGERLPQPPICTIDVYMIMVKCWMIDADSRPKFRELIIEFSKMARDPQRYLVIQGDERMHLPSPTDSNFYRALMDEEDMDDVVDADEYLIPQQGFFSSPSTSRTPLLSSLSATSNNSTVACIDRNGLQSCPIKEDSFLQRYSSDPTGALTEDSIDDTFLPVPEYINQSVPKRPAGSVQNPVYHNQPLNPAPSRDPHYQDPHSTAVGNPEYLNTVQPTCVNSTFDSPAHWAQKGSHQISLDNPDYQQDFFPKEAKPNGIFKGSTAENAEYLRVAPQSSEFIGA
pIC50: −log10 of the molar value.
observed-property: pIC50

Sample records with pIC50:
In [3]: df
Out[3]:
                                   molecule  observed_property   val
0             Nc1cc2ncnc(Nc3cccc(O)c3)c2cn1              pIC50  7.15
1        CN(C)c1ccc2c(Nc3cccc(Br)c3)ncnc2c1              pIC50  7.96
2                Nc1ccc2ncnc(Nc3ccccc3)c2c1              pIC50  6.11
3          COc1cc2ncnc(Nc3cccc(Br)c3)c2cc1N              pIC50  8.42
4  Brc1cccc(Nc2ncnc3cnc(NCCN4CCOCC4)nc23)c1              pIC50  9.10
5           COc1cc2c(Nc3cccc(Br)c3)ncnc2cn1              pIC50  8.59
6            COc1ccc(Nc2ncnc3cc(N)ncc23)cc1              pIC50  6.17
7           CNc1ccc2ncnc(Nc3cccc(Br)c3)c2c1              pIC50  8.40
8  OC(=O)CNN1=CC=C2N=CN=C(Nc3cccc(Br)c3)C2=C1              pIC50  8.82
9          CNc1cc2ncnc(Nc3cccc(Br)c3)c2cc1N              pIC50  9.16

[P] Brc1cccc(Nc2ncnc3ccccc23)c1
[Q] Brc1cccc(NC2=NC=NC3=CC=N(NCCN4CCOCC4)C=C23)c1
[R] Brc1cccc(NC2=NC=NC3=CC=N(NCCCn4ccnc4)C=C23)c1
Q) Number of compounds to sort: 3. Sort criterion: pIC50, ascending. Your task in answering is to list the labels in the requested order.
A) P, Q, R
(P: 7.56, Q: 8.49, R: 9.30)

Provenance of the data: the Kinase Knowledgebase extract (Sharma et al. 2016)
